Quick list: pIC50 per entry.
molecular target: HCV NS5B RdRp genotype 1b (Hepatitis C virus genotype 1b (isolate Con1) (HCV), UniProt Q9WMX2); assay: HCV NS5B RdRp enzyme assay
Sequence (Q9WMX2 2420-2992): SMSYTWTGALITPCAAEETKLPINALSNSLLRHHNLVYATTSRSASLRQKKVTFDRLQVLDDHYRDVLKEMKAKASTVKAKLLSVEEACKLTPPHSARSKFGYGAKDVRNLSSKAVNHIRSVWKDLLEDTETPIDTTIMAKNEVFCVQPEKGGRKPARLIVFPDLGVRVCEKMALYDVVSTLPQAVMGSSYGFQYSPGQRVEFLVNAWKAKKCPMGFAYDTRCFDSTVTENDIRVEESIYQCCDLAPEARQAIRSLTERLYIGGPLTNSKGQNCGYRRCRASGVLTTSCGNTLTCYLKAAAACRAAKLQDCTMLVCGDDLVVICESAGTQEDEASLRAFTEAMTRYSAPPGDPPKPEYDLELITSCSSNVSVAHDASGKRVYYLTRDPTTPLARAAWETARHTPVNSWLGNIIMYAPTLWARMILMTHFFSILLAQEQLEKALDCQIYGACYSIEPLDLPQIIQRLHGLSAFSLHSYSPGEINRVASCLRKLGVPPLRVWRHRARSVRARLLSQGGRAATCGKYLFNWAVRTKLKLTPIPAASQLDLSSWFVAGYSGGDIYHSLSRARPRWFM
The scale used: pIC50 is minus the common logarithm of the concentration in molar units.

Worked set:
CNC(=O)c1c(-c2ccc(F)cc2)oc2ccc(-c3cc(C(=O)NC4(c5ccccn5)COC4)cc(F)c3C)c(F)c12
7.80
CNC(=O)c1c(-c2ccc(F)cc2)oc2ccc(-c3cc(C(=O)NC4(c5ccccn5)COC4)c(OC)cc3C)c(F)c12
7.77
CNC(=O)c1c(-c2ccc(F)cc2)oc2ccc(-c3cc(C(=O)NC4(c5ncccn5)COC4)ccc3C)c(F)c12
8.00
CNC(=O)c1c(-c2ccc(F)cc2)oc2ccc(-c3cc(C(=O)NC4(c5ccccn5)COC4)ccc3C)c(F)c12
7.62
CNC(=O)c1c(-c2ccc(F)cc2)oc2ccc(-c3cc(C(=O)NC4(c5ccccc5)COC4)ccc3C)c(F)c12
7.24
CNC(=O)c1c(-c2ccc(F)cc2)oc2ccc(-c3cc(C(=O)NC4(c5ncccn5)COC4)cc(F)c3C)c(F)c12
8.22

# get_value(readout='pIC50', item= CNC(=O)c1c(-c2ccc(F)cc2)oc2ccc(-c3cc(C(=O)NC4(c5ncccn5)COC4)c(OC)cc3C)c(F)c12 )
7.66
